- Assayed System: T1, Anti-CD28 Fab (SEQ ID NOs: 696, 697)
- T1 construct: In the phage ELISA the Fab was biotinylated and captured on neutravidin coated plates
- T1 sequence (VH, as listed by the source, chain 1 of 2): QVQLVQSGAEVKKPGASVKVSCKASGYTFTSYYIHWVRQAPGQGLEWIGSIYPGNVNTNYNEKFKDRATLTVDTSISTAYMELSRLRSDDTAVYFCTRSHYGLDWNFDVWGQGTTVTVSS
- T1 sequence (VL, as listed by the source, chain 2 of 2): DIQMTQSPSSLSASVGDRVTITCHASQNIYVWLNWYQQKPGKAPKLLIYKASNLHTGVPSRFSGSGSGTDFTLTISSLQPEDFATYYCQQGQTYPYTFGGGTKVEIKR
- Test Summary: phage ELISA on captured anti-CD28 Fab; wells pre-incubated with CD28 antigen as competitor;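 also: clonal phage from crude supernatants added to wells pretreated with blocking buffer with or without CD28, bound phage read by ELISA with HRP-conjugated anti-M13 antibody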
As shown below, each of these binders has a reported Phage binding ELISA, Anti-CD28 Fab signal in the presence of CD28 value.
Quantity Name: Phage binding ELISA, Anti-CD28 Fab signal in the presence of CD28

{"columns": ["Binder", "Observed"],
 "data": [
  ["TCAAGAVWTWPICF [Phage-1630]", 0.05],
  ["RCAAGAMWTWPACF [Phage-1626]", 0.06],
  ["NCAAGAMYSWPTCL [Phage-1625]", 0.07],
  ["TCTAGFSYKWPTCL [Phage-1621]", 0.09],
  ["LCAAGAYYPWPLCF [Phage-1620]", 0.06],
  ["TCAAGATWLWPWCL [Phage-1629]", 0.07]
]}
